Each recorded value in this set is attributed to patent US20120316071A1.

Task for the reader: assign each of the following binders its reported ECL signal.
biological target: T1, rHuman P-Cadherin/Fc Chimera, CF (R&D Systems Cat#861-PC) (human, UniProt P22223 108-654); assay: ECL multispot (MSD) binding assay, antigen spotted on plate;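 note: purified Fab incubated 1 h at 20 °C on antigen spots, detected with TAG-labelled antibody, electrochemiluminescence compared with each well's blank, signal-to-blank ratio ≥4 counted as hit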
T1 construct: Bought recombinant protein
I only need the number, thanks.

Using the record for Fab VH1-46_IGHD6-6*01_IGHJ1*01 S102A/S103P/S104F/H111F (APFF) & L6_IGKJ1*01 S31F (Fab, V domains shown, Tested as Fab (CH1 with His6/Flag tags, kappa CL) made in E. coli; also called APFF / S31F) VH: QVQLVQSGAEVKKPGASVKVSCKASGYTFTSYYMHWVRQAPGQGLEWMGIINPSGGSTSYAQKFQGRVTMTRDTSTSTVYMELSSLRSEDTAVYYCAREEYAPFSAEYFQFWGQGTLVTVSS VL: EIVLTQSPATLSLSPGERATLSCRASQSVSFYLAWYQQKPGQAPRLLIYDASNRATGIPARFSGSGSGTDFTLTISSLEPEDFAVYYCQQRSNWPPWTFGQGTKVEIKR , report its ECL signal.
369

Fill blank: measured ECL signal of the binder Fab VH1-46_IGHD6-6*01_IGHJ1*01 S102A/S103P/S104F/H111F (APFF) & L6_IGKJ1*01 S31I (Fab, V domains shown, Tested as Fab (CH1 with His6/Flag tags, kappa CL) made in E. coli; also called APFF / S31I) VH: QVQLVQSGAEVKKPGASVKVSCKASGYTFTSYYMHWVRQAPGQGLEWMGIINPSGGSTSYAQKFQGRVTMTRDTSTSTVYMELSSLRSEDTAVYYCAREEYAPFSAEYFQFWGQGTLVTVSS VL: EIVLTQSPATLSLSPGERATLSCRASQSVSIYLAWYQQKPGQAPRLLIYDASNRATGIPARFSGSGSGTDFTLTISSLEPEDFAVYYCQQRSNWPPWTFGQGTKVEIKR is ____.
444

Please report the recorded ECL signal for Fab VH1-46_IGHD6-6*01_IGHJ1*01 S102A/S103P/S104F/H111F (APFF) & L6_IGKJ1*01 S31P (Fab, V domains shown, Tested as Fab (CH1 with His6/Flag tags, kappa CL) made in E. coli; also called APFF / S31P) VH: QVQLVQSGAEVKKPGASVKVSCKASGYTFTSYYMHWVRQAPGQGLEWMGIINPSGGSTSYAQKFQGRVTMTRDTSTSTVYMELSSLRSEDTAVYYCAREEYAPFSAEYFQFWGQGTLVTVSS VL: EIVLTQSPATLSLSPGERATLSCRASQSVSPYLAWYQQKPGQAPRLLIYDASNRATGIPARFSGSGSGTDFTLTISSLEPEDFAVYYCQQRSNWPPWTFGQGTKVEIKR .
493
